- Study Target: PARP-1 enzyme (Homo sapiens, UniProt P09874)
- Construct: made in house
- Sequence (P09874 whole entry): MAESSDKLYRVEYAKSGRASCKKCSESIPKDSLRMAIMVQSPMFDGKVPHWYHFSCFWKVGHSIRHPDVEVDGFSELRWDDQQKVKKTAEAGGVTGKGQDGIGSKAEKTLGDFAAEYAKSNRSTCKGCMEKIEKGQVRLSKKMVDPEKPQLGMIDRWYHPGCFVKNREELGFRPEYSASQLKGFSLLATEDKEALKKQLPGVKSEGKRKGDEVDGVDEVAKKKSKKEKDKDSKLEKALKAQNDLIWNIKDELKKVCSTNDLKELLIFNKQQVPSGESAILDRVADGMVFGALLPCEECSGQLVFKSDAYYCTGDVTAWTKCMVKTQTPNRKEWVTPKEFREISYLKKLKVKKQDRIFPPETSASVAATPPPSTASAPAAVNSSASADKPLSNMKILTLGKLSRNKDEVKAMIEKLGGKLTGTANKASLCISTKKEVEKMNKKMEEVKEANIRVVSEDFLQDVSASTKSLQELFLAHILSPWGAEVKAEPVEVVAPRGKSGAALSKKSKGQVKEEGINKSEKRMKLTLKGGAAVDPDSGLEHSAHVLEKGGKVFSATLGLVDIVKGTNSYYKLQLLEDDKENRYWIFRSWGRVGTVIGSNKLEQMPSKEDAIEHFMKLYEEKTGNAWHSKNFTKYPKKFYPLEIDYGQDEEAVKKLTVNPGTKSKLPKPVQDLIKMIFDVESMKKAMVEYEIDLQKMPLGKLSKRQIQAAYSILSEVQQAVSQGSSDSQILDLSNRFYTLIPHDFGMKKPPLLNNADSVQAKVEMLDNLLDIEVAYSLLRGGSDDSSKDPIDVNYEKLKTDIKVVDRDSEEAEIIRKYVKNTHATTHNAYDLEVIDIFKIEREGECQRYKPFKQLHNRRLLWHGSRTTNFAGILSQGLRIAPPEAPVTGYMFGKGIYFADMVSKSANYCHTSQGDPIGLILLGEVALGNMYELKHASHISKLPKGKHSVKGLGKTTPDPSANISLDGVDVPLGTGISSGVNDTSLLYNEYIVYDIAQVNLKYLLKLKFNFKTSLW
- Assay Name: In vitro Scintillation Proximity Assay (SPA) for PARP-1 inhibitory activity
- Assay type: biochemical
- Applied Conditions: nicked DNA activated PARP-1, [3H]-NAD+, biotinylated histones; read-out: In vitro SPA pIC50 (converted)
- Procedure: Pharmacological Example In Vitro Scintillation Proximity Assay (SPA) for PARP-1 Inhibitory Activity Compounds of the present invention were tested in an in vitro assay based on SPA technology (proprietary to Amersham Pharmacia Biotech). […] The beads were allowed to sediment for at least 15 min. and plates transferred to a TopCountNXT™ (Packard) for scintillation counting, values were expressed as counts per minute (cpm). […]
Observation Type: IC50 (nM)

CCc1cc2cc(C(SCCN(C)C)C3CCCCC3)ccc2[nH]c1=O (stereo not drawn) :: 600
CCc1cc2cc(C(c3ccsc3)N3CCC(=O)CC3)ccc2[nH]c1=O (stereo not drawn) :: 232
CCOC(=O)C1CCN(C(C)Cc2ccc3[nH]c(=O)c(CC)nc3c2)CC1 (stereo not drawn) :: 861

[P] CCc1cc2cc(C(C3CCCCC3)N3CCC(NCc4cccnc4)CC3)ccc2[nH]c1=O (stereo not drawn)
[Q] CCc1cc2cc(C(O)C3CCN(Cc4ccccc4)CC3)ccc2[nH]c1=O (stereo not drawn)
[R] CCc1cc2cc(C(CCN3CCN(C)CC3)C3CCCCC3)ccc2[nH]c1=O (stereo not drawn)
[S] CCc1cc2cc(C(O)CN3CCOCC3)ccc2[nH]c1=O (stereo not drawn)
Write the entries in order, lowest recorded IC50 first. Field: ranking. Enter the labels in the order requested.
Q, S, R, P
(Q: 180 nM, S: 288 nM, R: 507 nM, P: 863 nM)
